Target: T1, human IL-1α (human, UniProt P01583 113-271)
T1 sequence (looked up): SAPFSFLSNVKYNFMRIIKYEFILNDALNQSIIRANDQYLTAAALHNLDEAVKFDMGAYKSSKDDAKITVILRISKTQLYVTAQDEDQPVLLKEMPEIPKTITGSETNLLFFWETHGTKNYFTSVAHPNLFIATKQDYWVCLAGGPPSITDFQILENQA
Assay: cell-based or functional assay
Entries and their log10 of ND50
Values are log10 of ND50 in nM.

Illustrative cases are given below, each with its answer.
# binder, log10 of ND50
records = [
    ("ABT1-6-3 (other, VH dAb) VH: EVQLLESGGGLVQPGGSLRLSCAASGFTFGAYDMQWVRQAPGKGLEWVSSIYKSGALTSYADSVKGRFTISRDNSKNTLYLQMNSLRAEDTAVYYCAKGWASFDYWGQGTLVTVSS", 1.78),
    ("ABT1-95-14 (other, VK dAb) VL: DIQMTQSPSSLSASVGDRVTITCRASQPIVKNLRWYQQKPGKAPKLLIYSSSYLERGVPSRFSGSGSGTDFTLTISSLQPEDFATYHCQQGYRWPVTFGQGTKVEIKR", -0.60),
    ("ABT1-95-175 (other) VL: DIQMTQSPSSLSASVGDRVTITCRASRPIVRNLRWYQQKPGKAPKLLIYASSYLEPGVPSRFSGSGSGTDFTLTISSLQPEDFATYHCRQGYRWPVTFGQGTKVEIKR", -1.77),
]

# input binder: ABT1-95-86 (other) VL: DIQMTQSPSSLSASVGDRVTITCRASQPIVRNLRWYQQKPGKAPKLLIYSTSYLEPGVPSRFSGSGSGTDFTLTISSLQPEDFATYHCQQGYRWPVTFGQGTKVEIKR ; wanted: its log10 of ND50
-0.70

# input binder: ABT1-95-181 (other) VL: DIQMTQSPSSLSASVGDRVTITCRASKPIVRNMRWYQQKPGKAPKLLIYSVSYLEPGVPSRFSGSGSGTDFTLTISSLQPEDFATYHCLQGYRWPPTFGQGTKVEIKR ; wanted: its log10 of ND50
-1.85

# input binder: ABT1-6 (other, VH dAb) VH: EVQLLESGGGLVQPGGSLRLSCAASGFTFGAYDMQWVRQAPGKGLEWVSSINKSGALTSYADSVKGRFTISRDNSKNTLYLQMNSLRAEDTAVYYCAKGWASFDYWGQGTLVTVSS ; wanted: its log10 of ND50
3.48
